Known IC50 of a selection of compounds
assayed_system: P-selectin (Homo sapiens)
Construct: P-selectin is isolated from human platelet lysates
Sequence (P16109 42-830): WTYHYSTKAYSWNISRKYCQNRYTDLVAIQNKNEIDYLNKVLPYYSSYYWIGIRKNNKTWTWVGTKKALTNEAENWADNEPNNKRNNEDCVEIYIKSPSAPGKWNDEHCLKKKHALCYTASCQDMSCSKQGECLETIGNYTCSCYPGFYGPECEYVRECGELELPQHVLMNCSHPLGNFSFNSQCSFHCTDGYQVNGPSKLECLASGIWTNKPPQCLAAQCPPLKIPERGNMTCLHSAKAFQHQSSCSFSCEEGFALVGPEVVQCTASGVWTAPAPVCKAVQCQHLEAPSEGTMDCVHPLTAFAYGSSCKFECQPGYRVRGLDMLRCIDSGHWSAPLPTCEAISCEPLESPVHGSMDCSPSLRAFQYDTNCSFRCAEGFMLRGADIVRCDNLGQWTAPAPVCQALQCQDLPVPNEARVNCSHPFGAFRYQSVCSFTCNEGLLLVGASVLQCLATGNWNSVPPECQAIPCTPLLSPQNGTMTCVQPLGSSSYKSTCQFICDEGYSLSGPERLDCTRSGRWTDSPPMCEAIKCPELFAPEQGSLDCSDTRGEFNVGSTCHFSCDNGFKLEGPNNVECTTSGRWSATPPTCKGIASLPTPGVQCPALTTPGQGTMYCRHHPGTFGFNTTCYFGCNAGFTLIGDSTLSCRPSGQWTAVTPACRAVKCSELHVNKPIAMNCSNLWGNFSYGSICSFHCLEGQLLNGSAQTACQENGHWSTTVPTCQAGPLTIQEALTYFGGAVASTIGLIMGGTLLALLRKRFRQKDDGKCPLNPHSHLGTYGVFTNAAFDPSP
method: Inhibition of human neutrophil adhesion to purified P-selectin immobilized on plastic wells
particulars: inhibiting the binding of human neutrophils to P-selectin
Description: Peptides can be screened for their ability to inhibit adhesion to cells, for example, neutrophil adhesion to purified P-selectin immobilized on plastic wells, using the assay described by Geng, et al., Nature 343, 757-760 (1990). Human neutrophils are isolated from heparinized whole blood by density gradient centrifugation on Mono-Poly resolving media, Flow Laboratories. […] Peak fractions with absorbance at 280 nm are pooled. […]
Where a SMILES comes first, the peptide text is derived from it. Bridges are numbered along the chain shown (N, C = ends). [ ]: non-standard residue; d: D form. Tic = O=C(O)[C@@H]1Cc2ccccc2CN1

compound="CC(C)[C@@H](NC(=O)[C@@H](Cc1ccccc1)NC(=O)[C@H](NC(=O)[C@@H](Cc1c[nH]c2ccccc12)NC(=O)[C@H]1CSSC[C@@H](NC(=O)[C@@H](CCCCN)NC(=O)[C@H](N)CCCNC(=N)N)C(=O)NCC(=O)N[C@@H](Cc2ccccc2)C(=O)N1)[C@H](C)O)C(N)=O [(79)] (H-[dR][dK][dC]GF[dC][dW][dT][dF][dV]-NH2; disulfide 3-6)" assay_value="7.7 µM"

# next compound below
Identify measured IC50 corresponding to CC(C)[C@@H](NC(=O)[C@@H](Cc1c[nH]c2ccccc12)NC(=O)[C@H](NC(=O)[C@@H](Cc1c[nH]c2ccccc12)NC(=O)[C@H]1CSSC[C@@H](NC(=O)[C@@H](CCCCN)NC(=O)[C@H](N)CCCNC(=N)N)C(=O)NCC(=O)N2Cc3ccccc3C[C@H]2C(=O)N1)[C@H](C)O)C(N)=O [(86)] (H-[dR][dK][dC]G[Tic][dC][dW][dT][dW][dV]-NH2; disulfide 3-6)
83.4 µM

---

assayed_system: P-selectin (Homo sapiens)
Construct: P-selectin is isolated from human platelet lysates
Sequence (P16109 42-830): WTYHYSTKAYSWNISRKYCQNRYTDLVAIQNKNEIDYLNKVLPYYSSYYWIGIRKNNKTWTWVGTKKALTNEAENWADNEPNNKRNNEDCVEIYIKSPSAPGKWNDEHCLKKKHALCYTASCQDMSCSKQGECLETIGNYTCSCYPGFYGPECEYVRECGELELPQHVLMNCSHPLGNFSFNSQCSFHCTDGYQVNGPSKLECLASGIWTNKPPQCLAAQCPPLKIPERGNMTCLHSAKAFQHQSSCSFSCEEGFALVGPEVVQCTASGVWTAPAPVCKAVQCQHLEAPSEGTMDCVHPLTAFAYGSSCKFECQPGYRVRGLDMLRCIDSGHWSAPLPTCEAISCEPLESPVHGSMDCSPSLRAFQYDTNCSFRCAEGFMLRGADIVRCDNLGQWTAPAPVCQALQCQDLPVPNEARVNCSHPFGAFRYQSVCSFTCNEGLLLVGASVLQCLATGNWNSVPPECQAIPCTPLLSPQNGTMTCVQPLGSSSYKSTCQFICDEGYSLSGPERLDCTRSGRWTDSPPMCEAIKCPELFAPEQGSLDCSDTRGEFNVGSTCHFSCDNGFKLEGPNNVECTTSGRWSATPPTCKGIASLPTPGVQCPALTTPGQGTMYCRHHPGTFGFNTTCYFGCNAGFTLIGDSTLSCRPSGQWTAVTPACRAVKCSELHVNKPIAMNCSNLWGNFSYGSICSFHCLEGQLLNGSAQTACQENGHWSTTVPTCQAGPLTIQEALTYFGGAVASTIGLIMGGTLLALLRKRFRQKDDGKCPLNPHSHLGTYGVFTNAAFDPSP
method: Inhibition of human neutrophil adhesion to purified P-selectin immobilized on plastic wells
particulars: inhibiting the binding of human neutrophils to P-selectin
Where a SMILES comes first, the peptide text is derived from it. Bridges are numbered along the chain shown (N, C = ends). [ ]: non-standard residue; d: D form. dTic = O=C(O)[C@H]1Cc2ccccc2CN1
Known pIC50 of a selection of compounds
By convention, pIC50 is the negative base-10 log of a molar concentration.

compound="CC(C)[C@@H](NC(=O)[C@@H](Cc1c[nH]c2ccccc12)NC(=O)[C@H](NC(=O)[C@@H](Cc1c[nH]c2ccccc12)NC(=O)[C@H]1CSSC[C@@H](NC(=O)[C@@H](CCCCN)NC(=O)[C@H](N)CCCNC(=N)N)C(=O)NCC(=O)N2Cc3ccccc3C[C@@H]2C(=O)N1)[C@H](C)O)C(N)=O [(59)] (H-[dR][dK][dC]G[dTic][dC][dW][dT][dW][dV]-NH2; disulfide 3-6)" assay_value=4.74
compound="CC(C)[C@@H](NC(=O)[C@@H](Cc1c[nH]c2ccccc12)NC(=O)[C@H](NC(=O)[C@@H](Cc1c[nH]c2ccccc12)NC(=O)[C@H]1CSSC[C@@H](NC(=O)[C@@H](CCCCN)NC(=O)[C@H](N)CCCNC(=N)N)C(=O)N2CCC[C@@H]2C(=O)NCC(=O)N1)[C@H](C)O)C(N)=O [(15)] (H-[dR][dK][dC][dP]G[dC][dW][dT][dW][dV]-NH2; disulfide 3-6)" assay_value=3.31
compound="CC(C)[C@@H](NC(=O)[C@@H](CCCNC(=N)N)NC(=O)[C@H](NC(=O)[C@@H](Cc1c[nH]c2ccccc12)NC(=O)[C@H]1CSSC[C@@H](NC(=O)[C@@H](CCCCN)NC(=O)[C@H](N)CCCNC(=N)N)C(=O)NCC(=O)N[C@@H](Cc2ccccc2)C(=O)N1)[C@H](C)O)C(N)=O [(90)] (H-[dR][dK][dC]GF[dC][dW][dT][dR][dV]-NH2; disulfide 3-6)" assay_value=5.00
compound="CC(C)[C@@H](NC(=O)[C@@H](Cc1c[nH]c2ccccc12)NC(=O)[C@H](NC(=O)[C@@H](Cc1c[nH]c2ccccc12)NC(=O)[C@H]1CSSC[C@@H](NC(=O)[C@@H](CCCCN)NC(=O)[C@H](N)CCCNC(=N)N)C(=O)NCC(=O)NCC(=O)N1)[C@H](C)O)C(N)=O [(25)] (H-[dR][dK][dC]GG[dC][dW][dT][dW][dV]-NH2; disulfide 3-6)" assay_value=4.77
compound="CC(C)[C@@H]1NC(=O)CNC(=O)[C@H](NC(=O)[C@@H](CCCCN)NC(=O)[C@H](N)CCCNC(=N)N)CSSC[C@H](C(=O)N[C@H](Cc2c[nH]c3ccccc23)C(=O)N[C@@H](C(=O)N[C@H](Cc2c[nH]c3ccccc23)C(=O)N[C@@H](C(N)=O)C(C)C)[C@H](C)O)NC1=O [(89)] (H-[dR][dK][dC]GV[dC][dW][dT][dW][dV]-NH2; disulfide 3-6)" assay_value=4.65

Identify measured pIC50 corresponding to CC(C)[C@H](NC(=O)[C@H](Cc1c[nH]c2ccccc12)NC(=O)[C@@H](NC(=O)[C@H](Cc1c[nH]c2ccccc12)NC(=O)[C@@H]1CSSC[C@H](NC(=O)[C@H](CCCCN)NC(=O)[C@@H](N)CCCNC(=N)N)C(=O)NCC(=O)NCC(=O)N1)[C@@H](C)O)C(N)=O [(9)] (H-RKCGGCWTWV-NH2; disulfide 3-6)
5.52

Identify measured pIC50 corresponding to CC(C)[C@@H](NC(=O)[C@@H](Cc1c[nH]c2ccccc12)NC(=O)[C@H](NC(=O)[C@@H](Cc1c[nH]c2ccccc12)NC(=O)[C@H]1CSSC[C@@H](NC(=O)[C@@H](CCC(=O)O)NC(=O)[C@H](N)CCCNC(=N)N)C(=O)NCC(=O)N[C@@H](Cc2ccccc2)C(=O)N1)[C@H](C)O)C(N)=O [(112)] (H-[dR][dE][dC]GF[dC][dW][dT][dW][dV]-NH2; disulfide 3-6)
3.63
